# melting point annotations

Here's what some known entries look like.
>  <molecule>
COc1ccc(-c2csc(C)n2)c2sc(NC(=O)c3ccc(CCl)cc3)nc12 [Example 233]

>  <melting point>
140 to 145 °C

$$$$
>  <molecule>
COCCN(C)Cc1ccc(C(=O)Nc2nc3c(OC)ccc(-c4ccc(C)s4)c3s2)cc1 [Example 243]

>  <melting point>
83 to 90 °C

$$$$
>  <molecule>
COCCN(C)Cc1ccc(C(=O)Nc2nc3c(OC)ccc(-c4csc(N(C)C)n4)c3s2)cc1 [Example 239]

>  <melting point>
85 to 95 °C

$$$$
>  <molecule>
COc1ccc(-c2cccs2)c2sc(NC(=O)c3ccc(F)cc3)nc12 [Example 220]

>  <melting point>
242 to 250 °C

$$$$
>  <molecule>
COc1ccc(-c2csc(N)n2)c2sc(NC(=O)c3ccc(F)cc3)nc12 [Example 217]

>  <melting point>
262 to 264 °C

$$$$
>  <molecule>
COc1ccc(-c2csc(N3CCCC3)n2)c2sc(NC(=O)c3ccnc(C)c3)nc12 [Example 255]

>  <melting point>
195 to 215 °C

$$$$

Can you share its melting point? I mean this molecule: COc1ccc(-c2csc(N3CCN(C)CC3)n2)c2sc(NC(=O)c3ccc(F)cc3)nc12 [Example 221]
138 °C (dec.)

Report melting point for COCCN(C)Cc1ccc(C(=O)Nc2nc3c(OC)ccc(-c4csc(C)n4)c3s2)cc1 [Example 242] please.
140 to 145 °C
